log10 of intrinsic clearance, rat liver microsomes reference
Recorded intrinsic clearance, rat liver microsomes (log10, L/h/kg)

- Molecule: "C=CCN(Cc1cccnc1)c1nc(C)nc2sccc12"
  Numeric Readout: 1.95
- Molecule: "COCC(C)(C)CNC(=O)C1(Cn2cccn2)CC1"
  Numeric Readout: 1.05
- Molecule: "Cc1ncsc1-c1cncc(CC2CCCN(C)C2)n1 (stereo not given)"
  Numeric Readout: 0.81
- Molecule: "Cc1ccc(CNc2cncc(-n3nc(C)cc3C)n2)cn1"
  Numeric Readout: 1.18
- Molecule: "CC(C)c1nc(S(=O)(=O)N2CC3(CC3)c3ccccc32)c[nH]1"
  Numeric Readout: 2.27
- Molecule: "Nc1c(-c2ccc(F)cc2)ncn1Cc1ccccc1"
  Numeric Readout: 1.35
- Molecule: "CCc1cc(-c2ccc(OC)c3ncccc23)nc(N2CCOCC2)n1"
  Numeric Readout: 0.76
- Molecule: "Cc1cc2c(=O)n3c(nc2s1)CCNCC3"
  Numeric Readout: 0.61
- Molecule: "Cc1cc(C)c(S(=O)(=O)Nc2ccc(N(C)C)cc2)c(C)c1-n1cnnn1"
  Numeric Readout: 0.73
- Molecule: "CC(=O)N(c1ccc(C)cc1)c1nc(Cn2ccnc2)cs1"
  Numeric Readout: 1.10

Give me measured log10 of intrinsic clearance, rat liver microsomes, please, for this molecule: O=C(CCc1ccco1)Nc1ccccc1OC(F)F
1.70

Give me measured log10 of intrinsic clearance, rat liver microsomes, please, for this molecule: Cc1cc(N2CCC(C(=O)NC3CCCCC3)CC2)nc(-c2ccncc2)n1
1.06

Give me measured log10 of intrinsic clearance, rat liver microsomes, please, for this molecule: O=C(NCCN1CCc2ccccc2C1=O)c1ccncc1
1.16

Give me measured log10 of intrinsic clearance, rat liver microsomes, please, for this molecule: Cc1ccc(NC(=O)C(C)(C)c2ccccc2)nc1
1.57

Give me measured log10 of intrinsic clearance, rat liver microsomes, please, for this molecule: COc1cccc(CN(C)c2cc(N3CCCC3)ncn2)n1
2.43

Give me measured log10 of intrinsic clearance, rat liver microsomes, please, for this molecule: c1cnc(N2CC(c3nc4ccccc4[nH]3)C2)nc1
0.30

Give me measured log10 of intrinsic clearance, rat liver microsomes, please, for this molecule: Cc1cc(OCc2ncc(C(C)(C)C)o2)nn1C
1.59

Give me measured log10 of intrinsic clearance, rat liver microsomes, please, for this molecule: N#CCSCC(=O)NC1CCCCCC1
0.36

Give me measured log10 of intrinsic clearance, rat liver microsomes, please, for this molecule: Cc1sc2nc(CN3CCOCC3)nc(N3CCN(c4ccncc4)CC3)c2c1C
1.23

Give me measured log10 of intrinsic clearance, rat liver microsomes, please, for this molecule: Cc1cccc(-c2cccc(C(=O)NCCC3(O)CCCC3)c2)n1
2.24

Give me measured log10 of intrinsic clearance, rat liver microsomes, please, for this molecule: Cc1cc(Nc2nnc(C)s2)cc(C2CN(C(=O)c3c(C(C)C)noc3C)CCO2)n1 (stereo not given)
0.96

Give me measured log10 of intrinsic clearance, rat liver microsomes, please, for this molecule: O=C(NC1CCCCCC1)c1ccc(-c2cnco2)cc1
0.73

Give me measured log10 of intrinsic clearance, rat liver microsomes, please, for this molecule: O=C(NCc1ccc2c(c1)OCCO2)c1sccc1C1CC1
2.14

Give me measured log10 of intrinsic clearance, rat liver microsomes, please, for this molecule: c1ccc(-n2ncc3c(-n4ccnc4)ncnc32)cc1
1.35
